Source of measurements: PubChem BioAssay (NCI)

# Test system: MDA-MB-231 breast
# Protocol Text: NCI tumour cell line growth inhibition, 48 h
Observation Type: TGI

{"Molecule": "O=C(NC(Nc1ccc(F)c(Cl)c1)(C(F)(F)F)C(F)(F)F)OCc1ccccc1", "Experimental Result": "33.5 µM"}
{"Molecule": "O=[N+]([O-])c1ccc2ncccc2c1Cl", "Experimental Result": "11.9 µM"}
{"Molecule": "Cn1c2c(c3ccccc31)CC(=S)N1CCCC(CC2O)C1 (centres undefined)", "Experimental Result": "> 100 µM"}
{"Molecule": "CC/C(C)=C1\\OC(=O)C(C)C(O)C(Cc2cccnc2)NC(=O)C(NC(=O)c2ncccc2O)C(C)OC1=O (centres undefined)", "Experimental Result": "> 100 µM"}
{"Molecule": "CC(C)C1OC(/C=C/c2ccccc2)OCC1(C)C (centres undefined)", "Experimental Result": "94.7 µM"}
{"Molecule": "Cc1ccc(/C=C/C(=O)c2cc(CN(C)C)c(O)c(CN(C)C)c2)cc1", "Experimental Result": "27.2 µM"}
{"Molecule": "Nc1nc(Cl)c2nnn(CC3CCC(CO)C3)c2n1 (centres undefined)", "Experimental Result": "> 100 µM"}
{"Molecule": "CCCCC(=O)Oc1ccc2c(C)cc(=O)oc2c1", "Experimental Result": "> 100 µM"}
{"Molecule": "O=C(CCN1CCOCC1)Nc1ccc2sc3ccccc3c(=O)c2n1", "Experimental Result": "> 100 µM"}
{"Molecule": "C[C@]12[C@@H]3CC[C@H]1[C@@H](OC(=O)Nc1cc([N+](=O)[O-])cc([N+](=O)[O-])c1)C(=O)N2CC3", "Experimental Result": "> 100 µM"}
{"Molecule": "Cc1cn(C2CC(N)C(C(=O)O)O2)c(=O)[nH]c1=O (centres undefined)", "Experimental Result": "> 100 µM"}
{"Molecule": "NC(=O)c1[nH]cnc1/N=N/SCC(N)C(=O)O (centres undefined)", "Experimental Result": "> 54.9 µM"}
{"Molecule": "Cc1nc2n(c(=O)c1CCN1CCC(c3noc4cc(F)ccc34)CC1)CCCC2", "Experimental Result": "> 50 µM"}
{"Molecule": "CNC1C(O)C(OC2C(N)CC(N)C(OC3OC(C(C)O)C(O)C(O)C3N)C2O)OCC1(C)O (centres undefined)", "Experimental Result": "> 100 µM"}

* * *

# System: K-562 leukemia
# Protocol Text: NCI tumour cell line growth inhibition, 48 h
Class Met: TGI at least 8 µM. Class Not met: TGI below 8 µM.

{"Compound": "CC(=O)Nc1ccc(C(=O)NN2C(=O)C(Cl)C2c2ccccc2O)cc1 (stereo not given)", "Target Desc": "K-562 leukemia", "Category Label": "Met"}
{"Compound": "COC(=O)C1=CC(NC(=O)OCc2ccccc2)C(C(=O)c2ccccc2)C[C@@H]1Sc1ccccc1 (stereo not given in full)", "Target Desc": "K-562 leukemia", "Category Label": "Not met"}
{"Compound": "COC(=O)c1ccccc1/C=C1\\Cc2cc(C)c(C)cc2C1=O", "Target Desc": "K-562 leukemia", "Category Label": "Met"}
{"Compound": "CN(CCCNC(=O)c1nn(-c2ccc(Cl)cc2Cl)c2c1ccc1ccccc12)CCCNC(=O)c1nn(-c2ccc(Cl)cc2Cl)c2c1ccc1ccccc12", "Target Desc": "K-562 leukemia", "Category Label": "Not met"}
{"Compound": "CC(=O)[O][Hg][c]1ccccc1", "Target Desc": "K-562 leukemia", "Category Label": "Not met"}
{"Compound": "CCCCS(=O)(=O)Nc1ccc(Nc2c3ccccc3nc3ccccc23)c(OC)c1", "Target Desc": "K-562 leukemia", "Category Label": "Met"}
{"Compound": "COc1cc(-c2cc(=O)c3cc(C)c(C)c(C(=O)O)c3o2)cc(OC)c1OC", "Target Desc": "K-562 leukemia", "Category Label": "Met"}
{"Compound": "Nc1nc(Cl)c2nnn(CC3CCC(CO)C3)c2n1 (stereo not given)", "Target Desc": "K-562 leukemia", "Category Label": "Met"}
{"Compound": "c1ccc(C[n+]2cccc(-c3cc4ccccc4[nH]3)c2)cc1", "Target Desc": "K-562 leukemia", "Category Label": "Met"}
{"Compound": "O=c1cc(-c2ccccc2)oc2cc(OCCSCCCCCCCCCCSCCOc3ccc4c(=O)cc(-c5ccccc5)oc4c3)ccc12", "Target Desc": "K-562 leukemia", "Category Label": "Met"}
